Molecular target: Adenosine receptor A2b (Homo sapiens)
Sequence (whole entry): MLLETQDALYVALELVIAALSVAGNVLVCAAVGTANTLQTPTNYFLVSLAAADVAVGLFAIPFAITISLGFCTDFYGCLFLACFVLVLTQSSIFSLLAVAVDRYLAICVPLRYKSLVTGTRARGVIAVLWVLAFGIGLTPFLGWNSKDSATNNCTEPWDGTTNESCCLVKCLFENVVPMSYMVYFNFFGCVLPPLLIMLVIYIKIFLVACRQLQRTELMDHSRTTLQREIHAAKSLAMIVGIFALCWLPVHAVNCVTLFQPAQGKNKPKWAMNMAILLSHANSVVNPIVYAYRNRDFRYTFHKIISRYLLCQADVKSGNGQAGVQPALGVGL
Test: Displacement of [3H]PSB-603 from human A2B receptor expressed in CHO cell membrane at 1 uM relative to control
Assay type: cell membranes
Returns: string. Value is y if measured Activity is below 20%, and n if it is greater than or equal to it.

{"Line Notation": "Cn1c(=O)c2c(nc3n2CCN(CCOc2ccc(Cl)c(Cl)c2)C3)n(C)c1=O", "Qualitative Label": "n"}

**Query** Please determine if Cn1c(=O)c2c(nc3n2CCN(CCc2ccc(Cl)cc2Cl)C3)n(C)c1=O is below 20% in terms of Activity.
**Result** n

**Query** hey, is Activity for Cn1c(=O)c2c(nc3n2CCN(CCc2ccc4c(c2)OCO4)C3)n(C)c1=O lower than 20% or not?
**Result** y
